testSystem: HSV-1 protease (Human herpesvirus 1, UniProt P10210)
Construct: 6xHis (N); made in house; host or cells: baculovirus expression system
Sequence (P10210 1-247): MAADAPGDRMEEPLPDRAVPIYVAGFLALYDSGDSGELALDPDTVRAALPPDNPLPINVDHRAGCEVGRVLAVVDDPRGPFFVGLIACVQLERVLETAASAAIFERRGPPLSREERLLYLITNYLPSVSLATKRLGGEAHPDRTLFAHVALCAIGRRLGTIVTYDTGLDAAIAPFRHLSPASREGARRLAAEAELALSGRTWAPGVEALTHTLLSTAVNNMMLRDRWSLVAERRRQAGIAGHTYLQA
assayRemarks: Enzymatic assay for HSV-1 protease (assembly) inhibitor, fluorescence polarization
Type: biochemical
testParameters: read-out: HSV-1 Enzyme inhibition IC50
propertyName: pIC50
Scale note: pIC50 = -log10(concentration in M).

Example entries and their recorded answers appear below.
>  <molecularString>
Cc1c(NC(=O)OC(C)(C)C)ccc2nc(N3Cc4ccccc4C[C@H]3C(=O)NCc3ccncc3)oc(=O)c12

>  <recordedNumber>
5.26

$$$$
>  <molecularString>
Cc1c(NC(=O)OC(C)(C)C)ccc2nc(N[C@H](C(=O)N(C)CCc3ccncc3)C(C)(C)C)oc(=O)c12

>  <recordedNumber>
4.31

$$$$
>  <molecularString>
Cc1c(NC(=O)OC(C)(C)C)ccc2nc(N[C@@H](CCc3ccccc3)C(=O)N(C)CCc3ccncc3)oc(=O)c12

>  <recordedNumber>
5.49

$$$$
>  <molecularString>
Cc1c(NC(=O)c2ccc(Cl)cc2)ccc2nc(NC(C)(C)C(=O)N(C)CCc3ccccn3)oc(=O)c12

>  <recordedNumber>
5.59

$$$$
>  <molecularString>
Cc1c(NC(=O)c2cccs2)ccc2nc(NC(C)(C)C(=O)N(C)CCc3ccccn3)oc(=O)c12

>  <recordedNumber>
6.05

$$$$

Now look at this one.
Query: Entry under review: Cc1oc(C(C)(C)C)cc1C(=O)Nc1ccc2nc(NC(C)(C)C(=O)N(C)CCc3ccccn3)oc(=O)c2c1C . Reported pIC50?
Reply: 5.03

Just for reference, patent US20040116420A1 is where these values come from.
